# PROTOCOL SUMMARY: Selectivity index, ratio of CC50 for african green monkey Vero cells to EC50 for HSV-1F ATCC 733
# Type: toxicity, cell-based
# PROTOCOL CONDITIONS: read-out: Ratio CC50/EC50
Each item that follows carries a reported selectivity ratio.
// no unit, no text: just the number

// below: answered compounds
What value of selectivity ratio has been recorded for this entry: O=C(NCCO)c1c(N2CCCC2)cc(-c2ccccc2)oc1=O
3.1

What value of selectivity ratio has been recorded for this entry: Cc1ccc(NC(=O)c2c(N3CCCC3)cc(-c3ccccc3)oc2=O)cc1
2.7

What value of selectivity ratio has been recorded for this entry: O=C(NCCO)c1c(N2CCCCC2)cc(-c2ccccc2)oc1=O
7.1

Moving on to another compound below.
What value of selectivity ratio has been recorded for this entry: O=C(Nc1ccccc1)c1c(N2CCCC2)cc(-c2ccccc2)oc1=O
3
